Where these numbers come from: ChEMBL document CHEMBL1201862

Test system: A549
Test description: NCI tumour cell line growth inhibition, 48 h
Active and inactive are the calls of the source. No stated cut-off is given here; in the data, active = GI50 up to about 1.1 µM and inactive = higher.
Each entry below lists one item and its recorded GI50 value.

# Compound, GI50
data = [
    ("CC(=O)N[C@@H](Cc1ccc(O)cn1)C(=O)NCc1cccc(F)c1", "> 100 µM (inactive)"),
    ("COc1cc2c(c3c1c(=O)c1ccccc1n3C)C=CC(C)(C)O2", "> 100 µM (inactive)"),
    ("CC(C)CC(NC=O)C(=O)NC(Cc1ccccc1)NC(=O)CNC(=O)C(C)NC(=O)C(N)Cc1ccc(O)cc1 (stereo not given)", "> 100 µM (inactive)"),
    ("Cc1ccccc1NC(=O)c1cc2cc(/N=N/c3ccccc3C(=O)O)ccc2oc1=O", "33.4 µM (inactive)"),
    ("CC1=C(C(=O)CC(=O)C(=O)NC2C3CC4CC(C3)CC2C4)Sc2ccccc2N1 (stereo not given)", "> 100 µM (inactive)"),
    ("COc1cc(/C=C2\\C[C@H]3[C@@H]4CC=C5C[C@@H](N6CCCC6)CC[C@]5(C)[C@H]4CC[C@]3(C)[C@H]2O)cc(OC)c1OC", "10.6 µM (inactive)"),
    ("COc1nc(C)nc2c1ncn2Cc1ccccc1", "> 100 µM (inactive)"),
    ("CCOP(=O)(OCC)C(c1ccccc1)N(C(=O)NC(F)(F)F)c1ccc(C)cc1 (stereo not given)", "> 100 µM (inactive)"),
    ("O=C(O)Cn1ncn(NC(=O)Cc2ccccc2)c1=S", "> 10 µM (inactive)"),
    ("COC(=O)C1=C(CCCCO[Si](C)(C)C(C)(C)C)NC(=O)N2[C@H](CCOCc3ccccc3)CC[C@@H]12", "26.7 µM (inactive)"),
    ("COc1ccc2nc3cc([N+](=O)[O-])ccc3c(NNc3ccc(Cl)cc3)c2c1", "17.2 µM (inactive)"),
    ("CC/C(=C\\c1ccc(Cl)c(Cl)c1)[N+](=O)[O-]", "2.1 µM (inactive)"),
    ("C=C(C)[C@@]1(O[Si](C)(C)C)CCCC[C@@H]1CC(Sc1ccccc1)Sc1ccccc1", "10.1 µM (inactive)"),
    ("COC(=O)NN=C(c1ccc(Cl)cc1)c1ccc(Cl)cc1", "71.1 µM (inactive)"),
    ("C#CCCCCC#Cc1ccccc1C(=O)C=[N+]=[N-]", "> 100 µM (inactive)"),
    ("CC(C)=CC(=O)N(C)C1C2CN3CCC(O2)C13 (stereo not given)", "> 100 µM (inactive)"),
    ("CC12CC(c3ccccc3O1)C(C(=O)Nc1ccc(Cl)cc1Cl)C(=O)N2 (stereo not given)", "23.2 µM (inactive)"),
    ("CC(O)C(CO)NC(=O)C1CSSCC(NC(=O)C(N)Cc2ccccc2)C(=O)NC(Cc2ccccc2)C(=O)NC(Cc2c[nH]c3ccccc23)C(=O)NC(CCCCN)C(=O)NC(C(C)O)C(=O)N1 (stereo not given)", "> 100 µM (inactive)"),
    ("C[n+]1c2ccccc2c2/c(=C\\C#N)c3ccccc3n21", "6.92 µM (inactive)"),
    ("C=C(C(=O)OC)[C@H]1CC/C(C)=C/CC/C(C)=C/CC[C@@]2(C)O[C@@H]2C1", "14.9 µM (inactive)"),
]
